Experiment: activity coefficient (dimensionless); of the first substance listed, at infinite dilution; xn = mol fraction of the nth substance listed
Conditions: 343.1 K; 101 kPa; Liquid; Chromatography; x1 = 0
Property: activity coefficient; scope: individual compounds

[
  {
    "compound": "CCCCCC [hexane] + CCCCCC[N+]1(C)CCCC1.O=S(=O)([N-]S(=O)(=O)C(F)(F)F)C(F)(F)F",
    "activity coefficient": 7.11
  },
  {
    "compound": "CCCCCCCC [octane] + CCCCCC[N+]1(C)CCCC1.O=S(=O)([N-]S(=O)(=O)C(F)(F)F)C(F)(F)F",
    "activity coefficient": 12.9
  }
]

**Q:** Suppose we examine the compound CCC[N+](=O)[O-] [1-nitropropane] + CCCCCCCC[N+]1(C)CCCC1.O=S(=O)([N-]S(=O)(=O)C(F)(F)F)C(F)(F)F ; what activity coefficient value has been reported?
**A:** 0.51
